Provide the recorded % Cells Positive for the entries that follow.
tested.target: T1, native Ovr110 protein on tumor cells (ZR-75-1, SKBR3, RL95.2, OVCAR3) (human, UniProt Q7Z7D3 25-282)
T1 construct: whole, on cells; Endogenous protein of Ovr110-positive tumor cell lines; also called B7-H4; B7x
T1 sequence (looked up): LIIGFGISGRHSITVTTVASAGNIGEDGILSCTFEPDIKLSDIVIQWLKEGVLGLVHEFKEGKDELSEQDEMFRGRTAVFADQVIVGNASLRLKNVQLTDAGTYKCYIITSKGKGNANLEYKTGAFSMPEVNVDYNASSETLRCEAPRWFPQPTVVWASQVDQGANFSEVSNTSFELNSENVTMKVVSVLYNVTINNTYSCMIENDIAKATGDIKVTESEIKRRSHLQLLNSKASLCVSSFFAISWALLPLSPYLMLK
test.method.notes: flow cytometry; purified MAb; ZR-75-1 cells
Answers are plain numbers, in %.

Some binders with known % Cells Positive results, for comparison:
binder	% Cells Positive [%]
Ovr110.Q12 (antibody, IgG1, V domains shown, Mouse hybridoma MAb; also called Q12.2; Ovr110.Q12.2) VH: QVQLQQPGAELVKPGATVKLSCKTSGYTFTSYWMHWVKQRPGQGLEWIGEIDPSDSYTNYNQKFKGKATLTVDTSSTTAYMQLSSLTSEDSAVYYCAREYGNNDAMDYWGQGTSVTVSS VL: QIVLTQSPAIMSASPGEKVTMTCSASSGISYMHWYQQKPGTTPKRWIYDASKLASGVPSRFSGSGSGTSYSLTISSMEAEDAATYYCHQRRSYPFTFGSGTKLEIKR	94.1
Ovr110.Q19 (antibody, IgG1, V domains shown, Mouse hybridoma MAb; also called Q19.6; Ovr110.Q19.6) VH: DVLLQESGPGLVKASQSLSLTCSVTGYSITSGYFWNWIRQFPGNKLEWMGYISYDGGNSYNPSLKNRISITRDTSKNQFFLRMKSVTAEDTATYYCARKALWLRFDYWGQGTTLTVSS VL: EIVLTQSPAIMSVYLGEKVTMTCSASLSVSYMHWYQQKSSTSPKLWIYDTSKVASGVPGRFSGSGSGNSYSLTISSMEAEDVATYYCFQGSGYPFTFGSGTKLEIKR	95.6
Ovr110.Q11 (antibody, V domains shown, Mouse hybridoma MAb; also called Q11.12.3; Ovr110.Q11.12.3) VH: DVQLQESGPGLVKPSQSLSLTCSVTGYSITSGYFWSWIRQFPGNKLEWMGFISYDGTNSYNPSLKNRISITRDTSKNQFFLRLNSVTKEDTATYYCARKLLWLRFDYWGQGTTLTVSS VL: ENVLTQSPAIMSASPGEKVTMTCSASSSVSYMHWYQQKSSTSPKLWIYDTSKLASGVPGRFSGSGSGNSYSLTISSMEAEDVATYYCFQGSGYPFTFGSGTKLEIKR	96.4
Ovr110.Q27 (antibody, IgG1, V domains shown, Mouse hybridoma MAb; also called Q27.4; Q27.2) VH: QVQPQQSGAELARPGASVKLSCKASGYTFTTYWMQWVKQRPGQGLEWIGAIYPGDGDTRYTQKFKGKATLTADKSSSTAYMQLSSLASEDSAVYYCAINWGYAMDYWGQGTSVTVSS VL: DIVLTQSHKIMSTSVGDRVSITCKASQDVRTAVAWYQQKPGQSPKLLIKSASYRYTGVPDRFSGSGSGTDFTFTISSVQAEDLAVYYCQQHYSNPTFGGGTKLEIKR	93.3

Here is the next item to consider.
// % Cells Positive value for Ovr110.Q23 (antibody, IgG1, V domains shown, Mouse hybridoma MAb; also called Q23.6) VH: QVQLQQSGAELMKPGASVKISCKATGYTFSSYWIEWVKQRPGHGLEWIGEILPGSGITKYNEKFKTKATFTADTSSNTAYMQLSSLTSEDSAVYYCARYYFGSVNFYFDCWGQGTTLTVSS VL: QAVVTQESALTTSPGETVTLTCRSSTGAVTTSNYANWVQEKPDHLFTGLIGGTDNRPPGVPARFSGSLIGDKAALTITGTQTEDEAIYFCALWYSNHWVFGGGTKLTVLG : 92.7
